- Species: Rattus norvegicus
- ASSAY_PROCEDURE: Open TG-GATES - Regimen: Daily Repeat
- Format: toxicity, organism-based, Sprague-Dawley
- Design: regimen Daily Repeat, gender Male, age 6 weeks
- CONDITION: in vivo, po, 300 mg/kg, […], tissue Blood, route gavage, dose level Middle, time 7 day
REPORTED_METRIC: MCV (fL)
Give your result in fL as a bare value.

COMPOUND	REPORTED_METRIC	OBSERVED_VALUE
CCN1CCCC1CNC(=O)c1cc(S(N)(=O)=O)ccc1OC (centres undefined) [SULPIRIDE]	MCV	60.4
O=C(N[C@H](CO)[C@H](O)c1ccc([N+](=O)[O-])cc1)C(Cl)Cl	MCV	63.3
CC(C)(S)[C@@H](N)C(=O)O	MCV	62.4

Q: Give MCV for the following compound: `O=C(O)c1cccnc1`
A: 63.5

====

- Organism: Rattus norvegicus
- ASSAY_PROCEDURE: Open TG-GATES - Regimen: Daily Repeat
- Assay type: toxicity, organism-based, Sprague-Dawley
- Parameters: regimen Daily Repeat, gender Male, age 6 weeks
- CONDITION: in vivo, po, 0 mg/kg, 72 h, tissue Kidney, route gavage, dose level Control, time 3 day
REPORTED_METRIC: KIDNEY_R (g)
Give your result in g as a bare value.

Past entries and their recorded results:
COMPOUND	OBSERVED_VALUE
CC(=N)S [THIOACETAMIDE]	1
CC(C)C(=O)Nc1ccc([N+](=O)[O-])c(C(F)(F)F)c1 [FLUTAMIDE]	1
CCc1oc2ccccc2c1C(=O)c1cc(I)c(O)c(I)c1	1.1

Q: Give KIDNEY_R for the following compound: `C#C[C@]1(O)CC[C@H]2[C@@H]3CCc4cc(O)ccc4[C@H]3CC[C@@]21C`
A: 1

Q: Give KIDNEY_R for the following compound: `C[C@]12CCC(=O)C=C1CC[C@@H]1[C@@H]2CC[C@@]2(C)[C@H]1CC[C@]2(C)O`
A: 1

Q: Give KIDNEY_R for the following compound: `CN1C(=O)OC(C)(C)C1=O`
A: 1

Q: Give KIDNEY_R for the following compound: `Oc1ncnc2[nH]ncc12`
A: 1

====

- Species: Rattus norvegicus
- ASSAY_PROCEDURE: Open TG-GATES - Regimen: Daily Repeat
- Type: toxicity, organism-based, Sprague-Dawley
- Parameters: regimen Daily Repeat, gender Male, age 6 weeks
- CONDITION: in vivo, po, 0 mg/kg, […], tissue Plasma, route gavage, dose level Control, time 7 day
REPORTED_METRIC: GLC
Record the result as a number with its unit.

Past entries and their recorded results:
COMPOUND	OBSERVED_VALUE
CC(=O)Oc1cc(C(C)C)c(OCCN(C)C)cc1C [MOXISYLYTE]	189.2 mg/dL
CCSCC[C@H](N)C(=O)O [ETHIONINE]	198 mg/dL
CCN1CCCC1CNC(=O)c1cc(S(N)(=O)=O)ccc1OC (centres undefined) [SULPIRIDE]	181.6 mg/dL
O=C(N[C@H](CO)[C@H](O)c1ccc([N+](=O)[O-])cc1)C(Cl)Cl [CHLORAMPHENICOL]	188.8 mg/dL
CC(C)(S)[C@@H](N)C(=O)O [PENICILLAMINE]	189.8 mg/dL
CC(C)C(=O)Nc1ccc([N+](=O)[O-])c(C(F)(F)F)c1 [FLUTAMIDE]	214.8 mg/dL

Q: Give GLC for the following compound: C[C@](N)(Cc1ccc(O)c(O)c1)C(=O)O [METHYLDOPA]
A: 178.2 mg/dL

Q: Give GLC for the following compound: Oc1ncnc2[nH]ncc12 [ALLOPURINOL]
A: 203 mg/dL

Q: Give GLC for the following compound: CN1C(=O)OC(C)(C)C1=O [TRIMETHADIONE]
A: 191.8 mg/dL

Q: Give GLC for the following compound: CCc1oc2ccccc2c1C(=O)c1cc(I)c(O)c(I)c1 [BENZIODARONE]
A: 192 mg/dL

====

Item-by-item account of BUN
- Species: Rattus norvegicus
- ASSAY_PROCEDURE: Open TG-GATES - Regimen: Daily Repeat
- Assay type: toxicity, organism-based, Sprague-Dawley
- Set-up: regimen Daily Repeat, gender Male, age 6 weeks
- CONDITION: in vivo, po, 300 mg/kg, 72 h, tissue Plasma, route gavage, dose level Middle, time 3 day
Give your result in mg/dL as a bare value.

Past entries and their recorded results:
MOLECULE	OBSERVED_VALUE
O=C(N[C@H](CO)[C@H](O)c1ccc([N+](=O)[O-])cc1)C(Cl)Cl [CHLORAMPHENICOL]	16.6
CCN1CCCC1CNC(=O)c1cc(S(N)(=O)=O)ccc1OC (centres undefined) [SULPIRIDE]	14.6
O=C(O)c1cccnc1 [NIACIN]	16.4

Moving on to the next molecule.
Q: Give BUN for the following molecule: CC(C)(S)[C@@H](N)C(=O)O [PENICILLAMINE]
A: 14.4

====

- Organism: Rattus norvegicus
- ASSAY_PROCEDURE: Open TG-GATES - Regimen: Daily Repeat
- Format: toxicity, organism-based, Sprague-Dawley
- Design: regimen Daily Repeat, gender Male, age 6 weeks
- CONDITION: in vivo, po, 1000 mg/kg, […], tissue Plasma, route gavage, dose level High, time 28 day
REPORTED_METRIC: gamma-GTP (IU/L)
Give your result in IU/L as a bare value.

Past entries and their recorded results:
MOLECULE	gamma-GTP [IU/L]
O=C(O)c1cccnc1	2.4
O=C(N[C@H](CO)[C@H](O)c1ccc([N+](=O)[O-])cc1)C(Cl)Cl	1

Q: Give gamma-GTP for the following molecule: `CC(C)(S)[C@@H](N)C(=O)O`
A: 1.6

Q: Give gamma-GTP for the following molecule: CCN1CCCC1CNC(=O)c1cc(S(N)(=O)=O)ccc1OC (centres undefined) [SULPIRIDE]
A: 1

====

- Organism: Rattus norvegicus
- ASSAY_PROCEDURE: Open TG-GATES - Regimen: Daily Repeat
- Format: toxicity, organism-based, Sprague-Dawley
- Design: regimen Daily Repeat, gender Male, age 6 weeks
- CONDITION: in vivo, po, 0 mg/kg, […], tissue Blood, route gavage, dose level Control, time 28 day
REPORTED_METRIC: Eos (%)
Give your result in % as a bare value.

Past entries and their recorded results:
Nc1nc(N)c2nc(-c3ccccc3)c(N)nc2n1 1.2
O=C(N[C@H](CO)[C@H](O)c1ccc([N+](=O)[O-])cc1)C(Cl)Cl 1.6
CCc1oc2ccccc2c1C(=O)c1cc(I)c(O)c(I)c1 1.6

Q: Give Eos for the following molecule: `C[C@]12CCC(=O)C=C1CC[C@@H]1[C@@H]2CC[C@@]2(C)[C@H]1CC[C@]2(C)O`
A: 1.2

Q: Give Eos for the following molecule: `C[C@](N)(Cc1ccc(O)c(O)c1)C(=O)O`
A: 1.4

Q: Give Eos for the following molecule: `CCC(C)(C)C(=O)O[C@H]1C[C@@H](C)C=C2C=C[C@H](C)[C@H](CC[C@@H]3C[C@@H](O)CC(=O)O3)[C@H]21`
A: 1

Q: Give Eos for the following molecule: `C#C[C@]1(O)CC[C@H]2[C@@H]3CCc4cc(O)ccc4[C@H]3CC[C@@]21C`
A: 1

Q: Give Eos for the following molecule: `Oc1ncnc2[nH]ncc12`
A: 1

Q: Give Eos for the following molecule: `CC(C)(S)[C@@H](N)C(=O)O`
A: 1.4

====

- Organism: Rattus norvegicus
- ASSAY_PROCEDURE: Open TG-GATES - Regimen: Daily Repeat
- Format: toxicity, organism-based, Sprague-Dawley
- Set-up: regimen Daily Repeat, gender Male, age 6 weeks
- CONDITION: in vivo, po, 0 mg/kg, 72 h, tissue Plasma, route gavage, dose level Control, time 3 day
REPORTED_METRIC: gamma-GTP (IU/L)
Give your result in IU/L as a bare value.

Past entries and their recorded results:
COMPOUND	gamma-GTP [IU/L]
CCSCC[C@H](N)C(=O)O [ETHIONINE]	1
C[C@]12CCC(=O)C=C1CC[C@@H]1[C@@H]2CC[C@@]2(C)[C@H]1CC[C@]2(C)O [METHYLTESTOSTERONE]	1

Q: Give gamma-GTP for the following compound: CCN1CCCC1CNC(=O)c1cc(S(N)(=O)=O)ccc1OC (stereo unspecified) [SULPIRIDE]
A: 1

Q: Give gamma-GTP for the following compound: O=C(O)c1cccnc1 [NIACIN]
A: 1.4

Q: Give gamma-GTP for the following compound: CC(=O)Oc1cc(C(C)C)c(OCCN(C)C)cc1C [MOXISYLYTE]
A: 1

Q: Give gamma-GTP for the following compound: `Nc1nc(N)c2nc(-c3ccccc3)c(N)nc2n1`
A: 1

Q: Give gamma-GTP for the following compound: CC(=N)S [THIOACETAMIDE]
A: 1

Q: Give gamma-GTP for the following compound: C[C@](N)(Cc1ccc(O)c(O)c1)C(=O)O [METHYLDOPA]
A: 1.2
